Cited source for all entries: PubChem BioAssay AID463195

Recorded inhibition values for a group of molecules are listed next.
Assay: wild-type TIM10 yeast growth inhibition – luminescence, uHTS, counter-screen for tim10-1 yeast inhibitor project, primary screen (AID 463195);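 also: wild-type TIM10 isogenic control strain grown at permissive 25 °C; 0% = DMSO yeast wells and 100% = minimal medium wells without yeast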
Conditions: S. cerevisiae TIM10 strain growth, BacTiter-Glo luminescence, 24 h; at 10 µM; hits give high values
Screen size: about 330,000 compounds; about 4,600 (1.4%) were called active. This excerpt belongs to a sample that is enriched for actives.
# number only, unit % dropped from output

| MOLECULE | NUMERIC RESULT |
| --- | --- |
| Cc1cc(Cl)ccc1OCc1nc(-c2ccncc2)no1 | -5.93 |
| COc1ccc(C(=O)Nc2ccc(-n3nncc3C(C)(C)C)cc2)cc1 | 53.1 |
| O=C(Nc1cccc(Cl)c1)OCc1ccccn1 | 47.9 |
| O=C(Nc1ccc(Cl)cc1)OCc1cc(-c2ccccc2)on1 | 6.71 |
| Cc1ccc(C(=O)COc2cccc(NC(=O)c3ccco3)c2)cc1 | 54 |
| Cc1ccc(-c2noc(C3CCCN(C(=O)c4cccc(Cl)c4)C3)n2)o1 (stereo unspecified) | -12.1 |
| O=C(Nc1ccc(O)cc1)c1ccc(NC(=O)c2ccco2)cc1 | -7.64 |
| C/C(=N\Nc1ccc([N+](=O)[O-])cc1)c1ccc(-n2nncc2C(C)(C)C)cc1 | 8.53 |
| COc1cc2cc(CN(CCN3CCCC3)C(=O)Nc3ccccc3Cl)c(=O)[nH]c2cc1OC | 1.82 |
| O=C(Nc1ccnc(-c2ccncc2)n1)c1cccs1 | 5.09 |

Please turn your attention to the following entry.
Req: Find the measured inhibition of COc1ccc(N2C(=O)CC(Sc3n[nH]c(-c4ccc(C)cc4)n3)C2=O)cc1 (stereo unspecified) and report it.
Resp: 54
